B1: POMT2 (parent)
chain: VKYNSCADRPFSAPWWFWLSLTGV

variants of: B1; assay: protein stability index of a GFP-peptide fusion (GPS, HEK-293T) (PSI 1-6); higher = more stable; conditions: c terminus: a fixed tail appended;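 note: lentivirally expressed fusions sorted by FACS into six bins by GFP to DsRed ratio, PSI derived from sequencing read proportions per bin multiplied by bin number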
METRIC_NAME: protein stability index
I'd appreciate a reply containing only the number, no unit.

Please review the entries below; each comes with its answer.
In [3]: df
Out[3]:
                   sequence_record  result_value
0   VKYNSCAYRPFSAPWWFWLSLTGV [D8Y]          2.29
1   VFYNSCADRPFSAPWWFWLSLTGV [K2F]          2.75
2  VKYNSCADRPFSAPWWFWESLTGV [L19E]          1.65
3  VKYNSCADRPFSAPWWFWLSLTGN [V24N]          1.81
4   VKYNSCADNPFSAPWWFWLSLTGV [R9N]          3.39
5   VKYNSTADRPFSAPWWFWLSLTGV [C6T]          1.92
6  VKYNSCADRPFSAPWDFWLSLTGV [W16D]          3.79
7  VKYNSCADRPFSAPWWFWLSLTGL [V24L]          5.16
8  VKYNSCADRAFSAPWWFWLSLTGV [P10A]          2.24
9  VKYNSCADRPFSAPWWFWLSLAGV [T22A]          1.62

What protein stability index value was documented for this variant, VKYNSCARRPFSAPWWFWLSLTGV [D8R] ?
3.03

Subsequent entry: VKYNSCADRPFSAYWWFWLSLTGV [P14Y]
1.21

Also check VKYNSCADRPFSAPWPFWLSLTGV [W16P]
2.08

Now give it for VTYNSCADRPFSAPWWFWLSLTGV [K2T] too.
1.61

Another variant to check: VKYNSCYDRPFSAPWWFWLSLTGV [A7Y]
1.39

Same for VKYNSCADRPFSAPWWFWLSKTGV [L21K]
1.12

Now the variant VKYNSCADRPFSAPWLFWLSLTGV [W16L]
1.8
